tested target: EGFR L858R/C797S Ba/F3 cells (Homo sapiens, UniProt P00533, C797S/L858R, cells depend on it)
Sequence (P00533 whole entry C797S/L858R): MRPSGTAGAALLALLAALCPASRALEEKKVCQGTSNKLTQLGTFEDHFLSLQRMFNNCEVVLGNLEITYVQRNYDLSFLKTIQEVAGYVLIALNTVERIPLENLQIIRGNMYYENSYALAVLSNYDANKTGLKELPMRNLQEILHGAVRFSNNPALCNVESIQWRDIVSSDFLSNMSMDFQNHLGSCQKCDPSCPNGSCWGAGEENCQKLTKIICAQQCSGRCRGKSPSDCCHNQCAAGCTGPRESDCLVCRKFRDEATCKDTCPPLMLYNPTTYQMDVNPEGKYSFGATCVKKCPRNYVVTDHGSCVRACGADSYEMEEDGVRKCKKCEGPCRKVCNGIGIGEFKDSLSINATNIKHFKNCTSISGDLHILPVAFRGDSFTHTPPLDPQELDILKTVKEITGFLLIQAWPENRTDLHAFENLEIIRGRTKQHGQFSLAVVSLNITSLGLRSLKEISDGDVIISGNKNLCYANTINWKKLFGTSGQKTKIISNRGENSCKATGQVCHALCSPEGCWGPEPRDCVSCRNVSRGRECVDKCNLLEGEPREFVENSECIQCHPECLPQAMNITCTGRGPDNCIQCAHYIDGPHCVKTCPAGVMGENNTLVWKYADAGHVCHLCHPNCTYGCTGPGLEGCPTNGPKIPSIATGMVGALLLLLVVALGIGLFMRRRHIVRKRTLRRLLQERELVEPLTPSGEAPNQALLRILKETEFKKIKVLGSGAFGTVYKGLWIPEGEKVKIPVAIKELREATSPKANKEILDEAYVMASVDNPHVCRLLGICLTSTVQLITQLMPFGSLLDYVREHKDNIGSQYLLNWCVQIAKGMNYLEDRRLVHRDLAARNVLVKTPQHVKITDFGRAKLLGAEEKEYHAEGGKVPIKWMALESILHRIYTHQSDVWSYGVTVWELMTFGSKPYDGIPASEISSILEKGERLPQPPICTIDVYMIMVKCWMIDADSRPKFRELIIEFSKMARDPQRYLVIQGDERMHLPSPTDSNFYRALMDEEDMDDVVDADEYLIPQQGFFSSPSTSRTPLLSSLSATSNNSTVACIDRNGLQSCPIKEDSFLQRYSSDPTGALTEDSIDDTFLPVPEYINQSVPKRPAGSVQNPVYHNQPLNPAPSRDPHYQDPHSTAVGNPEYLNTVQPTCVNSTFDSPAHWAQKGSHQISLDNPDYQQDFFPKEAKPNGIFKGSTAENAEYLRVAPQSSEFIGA
method notes: Ba/F3 cell proliferation (Cell Titer Glo), EGFR L858R/C797S
Format: cell-based, murine
condition: 72 hours exposure, read-out: L858R/C797S (μM), inhibitory activity against EGFR mutants
Entries and their measured GI50 follow.
measure name: GI50

>>> val("C=CC(=O)N1CCN(c2cc3cnc(Nc4ccc(OCCN(C)C)cc4)nc3n(C3CC(F)(F)C3)c2=O)c2cccc(C)c21")
"≤ 0.25 µM"
>>> val("C=CC(=O)N1CCN(c2cc3cnc(Nc4cc(OC)ncc4C)nc3n(C)c2=O)c2cccc(C)c21")
"0.5 to 2.5 µM"
>>> val("C=CC(=O)N1CCN(c2cc3cnc(Nc4ccnc(OC)c4)nc3n(C)c2=O)c2cccc(C)c21")
"≤ 0.25 µM"
>>> val("C=CC(=O)N1CCN(c2cc3cnc(NC4CCC4)nc3n(-c3ccc(N(C)CCN(C)C)cc3)c2=O)c2cccc(C)c21")
"≤ 0.25 µM"
>>> val("C=CC(=O)N1CCN(c2cc3cnc(Nc4ccc(N5CCN(C)CC5)cc4)nc3n(C)c2=O)C(c2ccccc2)C1 (stereo not shown)")
"≥ 2.5 µM"
>>> val("C=CC(=O)N1CCN(c2cc3cnc(Nc4ccc(CS(=O)(=O)NC)cc4)nc3n(C)c2=O)c2cccc(C)c21")
"≤ 0.25 µM"
>>> val("C=CC(=O)N1CCN(c2cc3cnc(Nc4ccc(N5CCN(C)CC5)cc4)nc3n(C)c2=O)c2cccc(OC)c21")
"≤ 0.25 µM"
